Form field: IC50 (one value per entry).
- testSystem: D(2) dopamine receptor (Rattus norvegicus, UniProt P61169)
- Sequence (P61169 whole entry): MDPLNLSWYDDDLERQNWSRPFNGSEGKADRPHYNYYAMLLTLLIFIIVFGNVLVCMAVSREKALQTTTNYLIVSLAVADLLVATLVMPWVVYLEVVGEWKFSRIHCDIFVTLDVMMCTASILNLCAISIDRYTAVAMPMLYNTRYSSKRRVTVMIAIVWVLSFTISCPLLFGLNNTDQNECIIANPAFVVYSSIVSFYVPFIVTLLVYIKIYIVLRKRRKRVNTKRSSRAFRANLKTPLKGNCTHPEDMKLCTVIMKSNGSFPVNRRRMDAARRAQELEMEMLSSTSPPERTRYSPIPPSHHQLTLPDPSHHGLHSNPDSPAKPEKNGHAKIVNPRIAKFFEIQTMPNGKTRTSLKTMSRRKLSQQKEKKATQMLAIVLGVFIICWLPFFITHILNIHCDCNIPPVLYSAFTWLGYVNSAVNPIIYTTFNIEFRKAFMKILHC
- assayComment: In vitro binding affinity measured on dopamine receptor D2 using [3H]spiroperidol as radioligand.
observedProperty: IC50

compound	observedProperty	experimentalResult
COc1ccc2c(c1)C(CCCCN1CCN(c3ccccc3OC)CC1)=CCC2	IC50	10.6 nM
COc1ccccc1N1CCN(CCCC2CCCc3ccccc32)CC1 (centres undefined)	IC50	24.7 nM
COc1ccc2c(c1)C(CCCN1CCN(c3ccccc3OC)CC1)=CCC2	IC50	90.6 nM
COc1ccccc1N1CCN(CCCCC2=CCCc3c(OC)cccc32)CC1	IC50	5920 nM

The measured values listed here are drawn from ChEMBL document CHEMBL1128270.
